Molecular target: T1, PDZD2_2, O15018
T1 sequence (O15018 329-429, limits assumed, looked up): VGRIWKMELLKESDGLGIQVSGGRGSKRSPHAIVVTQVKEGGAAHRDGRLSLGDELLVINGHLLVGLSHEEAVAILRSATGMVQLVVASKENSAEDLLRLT
Assay: holdup assay
Parameters: key: below the threshold = too weak to quantify, mostly under pKd 3.1 to 4
Settings: plain residues with an end cap or a label only (N-terminal biotin on a linker: ado-ado)
# pKd values compiled below
Reply: number alone, nothing else.

The examples below pair each entry with its known result.
{"binder": "MQILSKPEFI [NPSR1, Q6W5P4]", "pKd": 3.62}
{"binder": "RDYTQSSSSL [GRM5, P41594]", "pKd": 3.83}
{"binder": "THREVKFTSL [CD46, P15529]", "pKd": 4.26}
{"binder": "DYSNLRETDI [ADRA1D, P25100]", "pKd": 4.18}

Q. Given the binder PSVYSRSQYV [CLDN8, P56748] , what is its reported pKd?
A. 4.55
